# Measured On: PDE5 enzyme isolated from human platelets (Homo sapiens (Human), UniProt O76074)
# Assay Procedure: PDE5 assay (Example 109), formation of 5′GMP from cGMP, SPA
# Condition Label: percent inhibition of control enzyme activity at 5.0E−09 M; assay of Example 109
Assay Readout: % inhibition at 5.0E−09 M
Answer with the value and then the unit.

[[record]]
compound = "CCCOc1ccc(S(=O)(=O)N2CCN(CCO[N+](=O)[O-])CC2)cc1-c1nc2c(CCC)c(/C=N/O)n(CC)c2c(=O)[nH]1 [Compound 1a]"
value_observed = "20.7%"


The compound listed as CCCOc1ccc(S(=O)(=O)N2CCC(CCO)CC2)cc1-c1nc2c(CCC)c(/C=N/O)n(CC)c2c(=O)[nH]1 [Compound 8] shows % inhibition at 5.0E−09 M equal to 71.2%

The compound listed as CCCOc1ccc(S(=O)(=O)N2CCN(CCO[N+](=O)[O-])CC2)cc1-c1nc2c(CCC)cn(CC)c2c(=O)[nH]1 [Compound 1i] shows % inhibition at 5.0E−09 M equal to 60.0%

The compound listed as CCCc1cn(C)c2c(=O)[nH]c(-c3cc(S(=O)(=O)N4CCN(CCCO)CC4)ccc3OCC)nc12 [Compound 23] shows % inhibition at 5.0E−09 M equal to 36.7%

The compound listed as CCCOc1ccc(S(=O)(=O)N2CCC(CCO)CC2)cc1-c1nc2c(CCC)cn(C)c2c(=O)[nH]1 [Compound 29] shows % inhibition at 5.0E−09 M equal to 46.4%

The compound listed as CCCOc1ccc(S(=O)(=O)N2CCC(CCCO)CC2)cc1-c1nc2c(CCC)cn(CC)c2c(=O)[nH]1 [Compound 15] shows % inhibition at 5.0E−09 M equal to 50.3%

The compound listed as CCCOc1ccc(S(=O)(=O)N2CCN(CCO)CC2)cc1-c1nc2c(CCC)cn(CC)c2c(=O)[nH]1 [mirodenafil, reference compound] shows % inhibition at 5.0E−09 M equal to 64.9%

====

# Measured On: PDE5 enzyme isolated from human platelets (Homo sapiens (Human), UniProt O76074)
# Assay Procedure: PDE5 assay (Example 109), formation of 5′GMP from cGMP, SPA;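 also: tritiated 5′GMP counted by scintillation after SPA bead capture, enzyme reaction run 60 min at 22 °C, basal control is the mixture without enzyme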
Assay Readout: IC50 (nM)
// return numeric value only (unit: nM, not printed)

Please review the following examples before continuing.
[[record]]
smi = "CCCOc1ccc(S(=O)(=O)N2CCC(CCCO)CC2)cc1-c1nc2c(CCC)cn(CC)c2c(=O)[nH]1"
assay_readout = "IC50"
value_observed = 1.8

[[record]]
smi = "CCCc1c(/C=N/O)n(C)c2c(=O)[nH]c(-c3cc(S(=O)(=O)N4CCC(CCO[N+](=O)[O-])CC4)ccc3OCC)nc12"
assay_readout = "IC50"
value_observed = 2


Switching to the query record.
The measured IC50 that "CCCOc1ccc(S(=O)(=O)N2CCC(CCO)CC2)cc1-c1nc2c(CCC)c(CO)n(CC)c2c(=O)[nH]1" showed for PDE5 enzyme isolated from human platelets (Homo sapiens (Human), UniProt O76074) is 2.4

====

# Measured On: recombinant human (rh) PDE5A (Homo sapiens (Human), UniProt O76074)
# Assay Procedure: Phosphodiesterase-5 activity assay (Example 110), radiometric SPA
# Format: biochemical
# Condition Label: asterisk: assay described in Example 110, rhPDE5A1; read-out: IC50
Assay Readout: IC50 (nM)
// return numeric value only (unit: nM, not printed)

The measured IC50 that "CCCOc1ccc(S(=O)(=O)N2CCC([C@@H](O)CO[N+](=O)[O-])CC2)cc1-c1nc2c(CCC)c(/C=N/O)n(C)c2c(=O)[nH]1" showed for recombinant human (rh) PDE5A (Homo sapiens (Human), UniProt O76074) is 3.3
